- System: Puccinia recondita
- Test Method Notes: Fungicidal activity against Wheat Leaf Rust (WLR) disease
- Format: in vivo
- Stated Conditions: Wheat Leaf Rust; concentration 2 ppm
Observable: WLR (Fungicidal Activities, C.V.) (%)
Numeric answer only, unit % assumed.

Reported WLR (Fungicidal Activities, C.V.) for COC=C(C(=O)OC)c1ccccc1CON=C(c1cccc(OC(F)=Cc2ccc3c(c2)OCO3)c1)C(F)(F)F was 93

Reported WLR (Fungicidal Activities, C.V.) for COC=C(C(=O)OC)c1ccccc1CON=C(C)c1cccc(OC(F)=Cc2cccc(C)c2)c1 was 99

Reported WLR (Fungicidal Activities, C.V.) for CNC(=O)C(=NOC)c1ccccc1CON=Cc1cccc(OC(F)=Cc2cccc(Cl)c2)c1 was 99

Reported WLR (Fungicidal Activities, C.V.) for COC=C(C(=O)OC)c1ccccc1CON=C(C)c1cccc(OC(F)=Cc2ccc(OC)cc2)c1 was 99

Reported WLR (Fungicidal Activities, C.V.) for COC=C(C(=O)OC)c1ccccc1CON=C(C)c1cccc(OC(F)=Cc2ccc(Cl)cc2)c1 was 97

Reported WLR (Fungicidal Activities, C.V.) for CON=C(C(=O)OC)c1ccccc1CON=C(C)c1cccc(OC(F)=Cc2ccc(F)cc2)c1 was 99

Reported WLR (Fungicidal Activities, C.V.) for COC=C(C(=O)OC)c1ccccc1CON=Cc1cccc(OC(F)=C(c2ccc(C)cc2)C(F)(F)F)c1 was 86

Reported WLR (Fungicidal Activities, C.V.) for CON=C(C(=O)OC)c1ccccc1CON=Cc1cccc(OC(F)=Cc2ccc(Cl)cc2)c1 was 97

Reported WLR (Fungicidal Activities, C.V.) for COC=C(C(=O)OC)c1ccccc1CON=Cc1cccc(OC(F)=Cc2cccc(C)c2)c1 was 97

Reported WLR (Fungicidal Activities, C.V.) for CNC(=O)C(=NOC)c1ccccc1CON=Cc1cccc(OC(F)=C(c2ccc(F)cc2)C(F)(F)F)c1 was 83

Reported WLR (Fungicidal Activities, C.V.) for COC=C(C(=O)OC)c1ccccc1CON=C(C)c1cccc(OC(F)=Cc2ccc3ccccc3c2)c1 was 95

Reported WLR (Fungicidal Activities, C.V.) for CCCCc1ccc(C=C(F)Oc2cccc(C(C)=NOCc3ccccc3C(=NOC)C(=O)OC)c2)cc1 was 93

Reported WLR (Fungicidal Activities, C.V.) for CON=C(C(=O)OC)c1ccccc1CON=C(c1cccc(OC(F)=Cc2ccccc2)c1)C(F)(F)F was 94

Reported WLR (Fungicidal Activities, C.V.) for CNC(=O)C(=NOC)c1ccccc1CON=C(C)c1cccc(OC(F)=Cc2cccc(C)c2)c1 was 100
